Data origin, for the record: patent US12264296B2

- EXPERIMENTAL DETAILS: Solubility of CBDA in mineral oil
- Format: physicochemical
- SETUP CONDITIONS: oil or lipid, under certain conditions
MEASUREMENT KIND: solubility

**Query** # solubility lookup, item C=C(C)[C@@H]1CCC(C)=C[C@H]1c1c(O)cc(CCCCC)c(C(=O)O)c1O [CBDA, Δ(9)-tetrahydrocannabidiolic acid]
**Result** ~6000 µg/mL
